Entries with their measured IC50, system HCV polymerase 1A (Δ21 NS5B, H77) (Hepatitis C virus genotype 1a):

Reference set (3 entries):
Compound	IC50
CC(C)(C)c1cc(N2CCC(=O)NC2=O)cc2c(Nc3ccc(NS(C)(=O)=O)cc3)ncnc12 [Compound 6]	10 to 100 nM
CC1(C)COc2c(-c3ccc4cc(NS(C)(=O)=O)ccc4c3)cc(-n3ccc(=O)[nH]c3=O)cc21 [Compound 3]	< 10 nM
COc1c(C(C)(C)C)cc(-n2ccc(=O)[nH]c2=O)c2ccc(-c3ccc(NS(C)(=O)=O)cc3)nc12 [Compound 2]	> 1000 nM

Next compound, IC50 to be filled in.
query: What measured IC50 goes with CC(C)(C)c1cc(-n2ccc(=O)[nH]c2=O)cc2c(Nc3cc(CNS(C)(=O)=O)cs3)ncnc12 [Compound 7] ?
result: 10 to 100 nM

====

Entries with their measured pIC50, system HCV polymerase 1B (Δ21 NS5B, BK) (Hepatitis C virus genotype 1b, UniProt P26663):
pIC50: −log10 of the molar value.

query: Lookup: pIC50 / HCV polymerase 1B (Δ21 NS5B, BK) (Hepatitis C virus genotype 1b, UniProt P26663) / CC(C)(C)c1cc(-n2ccc(=O)[nH]c2=O)cc2c(Nc3ccc(NS(C)(=O)=O)cc3)ncnc12
result: 7.00 to 8.00

query: Query CC(C)(C)c1cc(-n2ccc(=O)[nH]c2=O)cc2c(Nc3cc(CNS(C)(=O)=O)cs3)ncnc12 next
result: > 8.00

query: Query CC(C)(C)c1cc(N2CCC(=O)NC2=O)cc2c(Nc3ccc(NS(C)(=O)=O)cc3)ncnc12 next
result: 7.00 to 8.00

query: Query COc1c(C(C)(C)C)cc(-n2ccc(=O)[nH]c2=O)c2ccc(-c3ccc(NS(C)(=O)=O)cc3)nc12 next
result: < 6.00

query: Query CC1(C)CC(=O)Oc2c1cc(N1CCC(=O)NC1=O)c1ccccc21 next
result: 6.00 to 7.00

query: Query CC1(C)COc2c(-c3ccc4cc(NS(C)(=O)=O)ccc4c3)cc(-n3ccc(=O)[nH]c3=O)cc21 next
result: 7.00 to 8.00

query: Query COc1c(C(C)(C)C)cc(-n2ccc(=O)[nH]c2=O)c2cccnc12 next
result: 7.00 to 8.00

====

Each record here notes measured IC50.
- Target Or Test System: UniProtKB P27958

Reference set (2 entries):
Molecular String	Target Or Test System	Value Measured
CC1(C)CC(=O)Oc2c1cc(N1CCC(=O)NC1=O)c1ccccc21	UniProtKB P27958	> 1000 nM
COc1c(C(C)(C)C)cc(-n2ccc(=O)[nH]c2=O)c2cccnc12	UniProtKB P27958	10 to 100 nM

Next compound, IC50 to be filled in.
query: What measured IC50 goes with CC(C)(C)c1cc(-n2ccc(=O)[nH]c2=O)cc2c(Nc3ccc(NS(C)(=O)=O)cc3)ncnc12 ?
result: 10 to 100 nM
